Molecular target: A*0202 (Homo sapiens, UniProt P04439, D140Y/D185E/D98H/E176V/E277Q/G131W/G231S/I119L/I121R/I166T/I218V/L180W/L300P/L318F/N151K/N90K/P208A/P217A/Q67R/Q86G/Q94H/R138H/R169H/T345S)
Test: biochemical
Please go through the items and note down their IC50.
# output: bare number, implied unit µM

Looking up CC[C@H](C)[C@H](NC(=O)CNC(=O)[C@@H](NC(=O)[C@@H](NC(=O)[C@H](C)NC(=O)CN)[C@@H](C)O)C(C)C)C(=O)N[C@@H](CCSC)C(=O)N[C@H](C(=O)NCC(=O)N[C@H](C(=O)N[C@H](C(=O)O)C(C)C)C(C)C)[C@@H](C)CC [Peptide 9013.0342] , I see its IC50 listed as 7.52

Briefly, IC50 measured for CC[C@H](C)[C@H](NC(=O)[C@@H](NC(=O)[C@H](CC(C)C)NC(=O)[C@@H](N)CS)[C@@H](C)O)C(=O)N[C@@H](Cc1c[nH]cn1)C(=O)N[C@@H](Cc1ccc(O)cc1)C(=O)N[C@@H](CC(N)=O)C(=O)N[C@@H](Cc1ccc(O)cc1)C(=O)N[C@H](C(=O)O)C(C)C [Peptide 1323.07] : 0.216

Memo: CC(C)[C@H](NC(=O)[C@@H](NC(=O)[C@H](CC(N)=O)NC(=O)[C@H](CCC(N)=O)NC(=O)[C@H](C)NC(=O)[C@H](CCC(=O)O)NC(=O)[C@@H]1CCCN1C(=O)[C@H](CCC(=O)O)NC(=O)[C@H](CS)NC(=O)[C@@H](NC(=O)[C@@H](N)Cc1ccccc1)[C@@H](C)O)[C@@H](C)O)C(=O)O [Peptide 9013.0323] , reported IC50: 0.029

###

Biological target: DR7 (DRB1*0701) (Homo sapiens, UniProt P01903+P01911, A100R/A102G/A103Q/D57E/D86V/E43K/F76Y/K127E/L162R/M171V/P40G/Q125H/Q99D/R33Q/R42Y/R54Q/S133A/S66F/T210M/V115G/Y107V/Y59L/Y89S)
Experiment: biochemical
Format: binding
No end group written: not given here.
Could you please report measured IC50 for the items listed next?
Response body: numeric value in µM, unit text excluded.

Query YFKYFKEDAAKYSKT [Peptide 90.0205] yields IC50 of 3.63

The measured IC50 associated with LDHYENDSKDINSQI [Peptide 1601.29] reads 19.9

Per the records, this sequence ( ETCMLIQPPKLRSSV [Peptide 89.0029] ) has IC50 equal to 0.354

Noted for LYCYEQLSDSSDEDE [Peptide 1543.13] : its IC50 reads 9.77

sequence CIHSTATDLRTLQQM [Peptide 1543.45] , IC50 observed: 0.459

###

Field: pIC50. Provide a value for each of the sequences that follow.
Target: A*3002 (Homo sapiens, UniProt P04439, D101N/D140H/D185E/E176R/F33S/G80R/H175R/K168Q/Q94H/R138E/R41S/V100E)
Sequence (P04439 whole entry, looked up, the tested form may be a part, stated change not applied): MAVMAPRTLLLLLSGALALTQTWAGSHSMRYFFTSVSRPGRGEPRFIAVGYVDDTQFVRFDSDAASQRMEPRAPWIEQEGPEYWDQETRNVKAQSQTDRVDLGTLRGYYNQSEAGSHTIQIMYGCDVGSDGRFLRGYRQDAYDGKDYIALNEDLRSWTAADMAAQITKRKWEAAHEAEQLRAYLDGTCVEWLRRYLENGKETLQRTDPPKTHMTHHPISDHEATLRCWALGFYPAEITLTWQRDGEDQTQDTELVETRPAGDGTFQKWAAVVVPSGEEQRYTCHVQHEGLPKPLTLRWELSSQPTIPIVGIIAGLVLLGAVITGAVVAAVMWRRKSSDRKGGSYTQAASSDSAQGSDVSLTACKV
Test: biochemical
Assay type: binding
No end group written: not given here.
Quick note: pIC50 means taking -log10 of the concentration in moles per liter.

// RTDPVTLDVLY [Peptide 9012.0168] : pIC50 value = 8.00

Looking up LTQRNPQLCY [Peptide 9012.0151] , I found its pIC50 recorded as 8.15

What the record says about VTADLRIVY [Peptide 1549.50] : pIC50 is 7.30

response.value for EYRHYQYSLY [Peptide 78.0183] (field: pIC50) = 6.89

sequence ITSPPDSSY [Peptide 9012.0118] , pIC50 observed: 8.06

Sure, the documented pIC50 for VQDKILDIY [Peptide 1580.32] is 5.42

Record ISEYRHYQY [Peptide 78.0254] , field pIC50: 7.09

###

Record form. Attribute: IC50. Fill in for each entry.
Target: DR4w4 (DRB1*0401) (Homo sapiens, UniProt P01903+P01911, A100K/A169T/F76Y/I96L/K127E/L162R/M171V/N62H/P40V/Q125Y/R42H/S133A/S149N/S66Y/V115G/V209L/W38E)
Experiment: biochemical
Format: binding
No end group written: not given here.
Supply the numeric figure in µM, leaving out any unit text.

Form: sequence = DSEIAYKYAQLADTN [Peptide 89.0012] ; IC50 = 1.95

IC50 recorded for this sequence, DSVDSVNCGVISAAA [Peptide 1601.24] , is 1.28

The measured IC50 associated with VSKLMSQLLNIPETH [Peptide 89.0101] reads 10.6

IC50 reported for this sequence RVCLLFYSKVRKYRY [Peptide 1543.54] : 0.299

Noted for GKSYFGMSLIHFLKG [Peptide 89.0146] : its IC50 reads 0.561

# IC50 (sequence: DFLNTVKIPNTVSVS [Peptide 1601.28] ) is 0.5

Notebook: CTLVAGEVDYVGLYY [Peptide 90.0252] , IC50 read as 0.776

Short answer for ETHMVIEPPKLRSAT [Peptide 89.0103] : IC50 was 0.778

get_value(item= ESDMAFQYAQLADCN [Peptide 89.0085] , readout=IC50) returns 0.233

The sequence identified as YRHYQYSLYGKTLEE [Peptide 1543.58] registered its IC50 at 0.0041

For record NGWFYVEAVVEKKTG [Peptide 90.0029] the listed IC50 is 0.031

So for QRFHNIRGRWTGRCM [Peptide 1543.27] , the logged IC50 turned out to be 2.9

###

For each of the compounds below, state its IC50.
Molecular target: DRB1*1201 (Homo sapiens, UniProt P01903+P01911, A100R/A169T/D57E/D86V/F55L/H45Y/K41T/L162R/M171V/P40S/Q125H/Q178H/Q39Y/Q99D/R42G/S66L/T262R/V114A/V67L/W38E/Y59H/Y61H/Y89S)
Assay: biochemical

Record summary for CC[C@H](C)[C@H](NC(=O)[C@H](CO)NC(=O)[C@@H](NC(=O)CNC(=O)[C@H](CCC(=O)O)NC(=O)[C@@H]1CCCN1)C(C)C)C(=O)N[C@@H](Cc1c[nH]c2ccccc12)C(=O)N[C@@H](CC(N)=O)C(=O)N1CCC[C@H]1C(=O)N[C@H](C(=O)N[C@@H](CC(C)C)C(=O)N[C@@H](CC(C)C)C(=O)N[C@@H](Cc1c[nH]c2ccccc12)C(=O)N[C@@H](CCC(N)=O)C(=O)N1CCC[C@H]1C(=O)O)[C@@H](C)CC [Peptide 68.0033] : reported IC50 = 7.97 µM

According to the records, this compound CC(C)C[C@H](NC(=O)[C@H](CCC(N)=O)NC(=O)[C@H](C)NC(=O)[C@H](CC(N)=O)NC(=O)[C@H](CCCCN)NC(=O)[C@@H](NC(=O)[C@H](CCCCN)NC(=O)[C@H](CC(N)=O)NC(=O)CN)C(C)C)C(=O)N[C@@H](C)C(=O)NCC(=O)N[C@@H](C)C(=O)N[C@@H](CCCCN)C(=O)NCC(=O)N[C@H](C(=O)O)C(C)C [Peptide 68.0097] displays IC50 of > 20 µM

###

Biological target: H-2Db (Mus musculus, UniProt P01899)
Assay: biochemical
Format: binding, murine
pIC50: −log10 of the molar value. No end group written: not given here.
Recorded metric: pIC50

Entry under test: SIQFFGEL [Peptide F079.04] . Its pIC50 was < 4.36

pIC50 reported for this sequence SIQFFGERAL [Peptide F079.03] : < 4.36

###

Target: DRB1*1201 (Homo sapiens, UniProt P01903+P01911, A100R/A169T/D57E/D86V/F55L/H45Y/K41T/L162R/M171V/P40S/Q125H/Q178H/Q39Y/Q99D/R42G/S66L/T262R/V114A/V67L/W38E/Y59H/Y61H/Y89S)
Experiment: biochemical
Recorded metric: IC50 (nM)
Give just the numeric value; nM need not be written.

Given item CC[C@H](C)[C@H](NC(=O)[C@H](CCCNC(=N)N)NC(=O)[C@@H](N)[C@@H](C)O)C(=O)N[C@@H](Cc1ccc(O)cc1)C(=O)N[C@@H](CC(N)=O)C(=O)N[C@H](C(=O)N[C@H](C(=O)NCC(=O)N[C@H](C(=O)N[C@@H](CC(C)C)C(=O)N[C@@H](CCCNC(=N)N)C(=O)NCC(=O)N[C@@H](C)C(=O)N[C@H](C(=O)N[C@@H](CCC(=O)O)C(=O)O)C(C)C)[C@@H](C)O)[C@@H](C)CC)C(C)C [Peptide 68.0107] , the value recorded as its IC50 is 502

CC[C@H](C)[C@H](NC(=O)[C@H](CC(C)C)NC(=O)[C@H](CCCCN)NC(=O)[C@H](CCCCN)NC(=O)[C@@H](N)Cc1ccc(O)cc1)C(=O)N[C@@H](CCSC)C(=O)N[C@@H](Cc1ccc(O)cc1)C(=O)N[C@@H](CO)C(=O)N[C@@H](C)C(=O)N[C@@H](Cc1c[nH]cn1)C(=O)N[C@@H](CC(=O)O)C(=O)N[C@H](C(=O)N[C@H](C(=O)N[C@H](C(=O)N[C@@H](CO)C(=O)O)C(C)C)[C@@H](C)O)[C@@H](C)O [Peptide 68.0049] yielded IC50 of 928

// sample CC[C@H](C)[C@H](N)C(=O)N[C@@H](CC(C)C)C(=O)N[C@@H](CC(C)C)C(=O)N[C@@H](Cc1c[nH]c2ccccc12)C(=O)N[C@@H](CCC(N)=O)C(=O)N1CCC[C@H]1C(=O)N[C@H](C(=O)N1CCC[C@H]1C(=O)N[C@H](C(=O)N[C@@H](Cc1c[nH]cn1)C(=O)N[C@H](C(=O)N[C@H](C(=O)N1CCC[C@H]1C(=O)N[C@@H](CC(C)C)C(=O)N[C@@H](CO)C(=O)O)C(C)C)[C@@H](C)O)C(C)C)[C@@H](C)CC , its IC50 was 7290

Reported IC50 of CC[C@H](C)[C@H](NC(=O)[C@@H](NC(=O)[C@@H](N)CO)C(C)C)C(=O)N[C@@H](CC(C)C)C(=O)N[C@@H](CC(C)C)C(=O)NCC(=O)N[C@@H](CCCNC(=N)N)C(=O)N[C@@H](Cc1c[nH]cn1)C(=O)N[C@@H](CO)C(=O)N[C@@H](CC(C)C)C(=O)N[C@@H](Cc1ccccc1)C(=O)N[C@@H](Cc1c[nH]cn1)C(=O)N1CCC[C@H]1C(=O)N[C@@H](CCC(=O)O)C(=O)N[C@@H](CC(=O)O)C(=O)O [Peptide 68.0067] : 91

Entry CC(C)C[C@H](NC(=O)[C@H](CCC(N)=O)NC(=O)[C@H](CC(=O)O)NC(=O)[C@H](CCC(=O)O)NC(=O)[C@H](CO)NC(=O)[C@H](CC(C)C)NC(=O)[C@@H]1CCCN1C(=O)[C@@H](NC(=O)[C@@H](N)[C@@H](C)O)C(C)C)C(=O)N[C@@H](CC(C)C)C(=O)N[C@@H](Cc1ccc(O)cc1)C(=O)N[C@@H](CC(C)C)C(=O)N1CCC[C@H]1C(=O)N[C@@H](Cc1ccccc1)C(=O)N[C@@H](CCCNC(=N)N)C(=O)O [Peptide 68.0147] , IC50 reported as 9690

From: patent US9340577B2
